The entries below come with measured A. tumefaciens-TraR Activation [%] values attached.
- System Name: TraR (Agrobacterium tumefaciens, UniProt P33905)
- Construct: These strains lack their AHL synthase (I) genes, but retain their native R genes; endogenous in cells; host or cells: A. tumefaciens WCF47 (Δ-traI) with PtraI-lacZ plasmid pCF372
- Sequence (P33905 whole entry): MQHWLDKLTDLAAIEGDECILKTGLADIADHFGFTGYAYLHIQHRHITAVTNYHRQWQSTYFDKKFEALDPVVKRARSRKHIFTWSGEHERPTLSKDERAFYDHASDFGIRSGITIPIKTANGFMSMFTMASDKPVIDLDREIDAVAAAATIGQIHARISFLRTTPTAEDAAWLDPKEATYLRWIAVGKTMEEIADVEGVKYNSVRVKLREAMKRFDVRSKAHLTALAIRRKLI
- Assay Remarks: cell-based
- Experimental Context: 10 μM ligand; A. tumefaciens WCF47 (pCF372); normalized to OOHL
- Procedure: A. tumefaciens reporter gene assay protocols. […] An overnight culture of A. tumefaciens WCF47 (pCF372) was diluted to an OD600 of 0.1 in fresh AB minimal medium containing 400 μg/mL octopine and 50 μg/mL streptomycin. A 200 μL-portion of the diluted culture was added to each well of the multititer plate containing AHLs. […] Briefly, 200 μL aliquots of bacteria from each of the wells were added to wells of a polystyrene 96-well plate and the OD600 of each well was recorded. […]
Measurement Name: A. tumefaciens-TraR Activation [%] (%)

Compound: COc1ccccc1C1CCN(c2ccc(C=CC(=O)NC3CCOC3=O)cc2[N+](=O)[O-])CC1 (stereo not drawn) [D18]
Measurement Name: A. tumefaciens-TraR Activation [%]
Recorded Measurement: 0
//
Compound: O=C(CCC(=O)OC(C(=O)c1ccccc1)c1ccccc1)N[C@H]1CCOC1=O (stereo partly drawn) [D19]
Measurement Name: A. tumefaciens-TraR Activation [%]
Recorded Measurement: 0
//
Compound: O=C(CC(=O)N[C@@H]1CCOC1=O)Cc1ccccc1 [A25]
Measurement Name: A. tumefaciens-TraR Activation [%]
Recorded Measurement: 2
//
Compound: O=C(CC1CCCC1)N[C@H]1CCOC1=O [B12]
Measurement Name: A. tumefaciens-TraR Activation [%]
Recorded Measurement: 0
//
Compound: O=C(Cc1ccccc1I)N[C@H]1CCOC1=O [B15]
Measurement Name: A. tumefaciens-TraR Activation [%]
Recorded Measurement: 0
//
Compound: CCOc1ccc(CC(=O)N[C@H]2CCOC2=O)cc1 [B29]
Measurement Name: A. tumefaciens-TraR Activation [%]
Recorded Measurement: 0
//
Compound: CC(C)(C)OC(=O)NCCCCC(=O)N[C@H]1CCOC1=O [A22]
Measurement Name: A. tumefaciens-TraR Activation [%]
Recorded Measurement: 0
//
Compound: COc1cc(C(C)=O)ccc1OCC(=O)N[C@H]1CCOC1=O [D16]
Measurement Name: A. tumefaciens-TraR Activation [%]
Recorded Measurement: 0
//
Compound: C=CCCC(=O)N[C@H]1CCOC1=O [A23]
Measurement Name: A. tumefaciens-TraR Activation [%]
Recorded Measurement: 0
//
Compound: O=C(/C=C/c1ccccc1)N[C@H]1CCOC1=O [A19]
Measurement Name: A. tumefaciens-TraR Activation [%]
Recorded Measurement: 3
//
Compound: COc1ccc(CC(=O)N[C@H]2CCOC2=O)cc1 [B28]
Measurement Name: A. tumefaciens-TraR Activation [%]
Recorded Measurement: 0
//
Compound: CCCCCCCCCCCS(=O)(=O)N[C@H]1CCOC1=O [A16]
Measurement Name: A. tumefaciens-TraR Activation [%]
Recorded Measurement: 0

###

- System Name: LasR (Pseudomonas aeruginosa)
- Construct: expressed in transfected cells; host or cells: E. coli DH5α (pJN105L pSC11), arabinose-induced
- Sequence (P25084 whole entry): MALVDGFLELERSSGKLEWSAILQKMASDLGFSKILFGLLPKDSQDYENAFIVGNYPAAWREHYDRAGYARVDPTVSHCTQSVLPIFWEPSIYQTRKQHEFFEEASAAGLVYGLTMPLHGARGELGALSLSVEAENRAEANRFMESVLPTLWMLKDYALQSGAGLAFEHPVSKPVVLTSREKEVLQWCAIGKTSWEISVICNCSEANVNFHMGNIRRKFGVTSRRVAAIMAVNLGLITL
- Assay Remarks: cell-based
- Format: cell-based
- Experimental Context: read-out: E. coli-LasR Inhibition [%], 5 μM synthetic ligand against 7.5 nM OdDHL; E. coli DH5α (pJN105L pSC11); normalized to OdDHL

Molecule: O=C(Cc1ccc(-c2ccccc2)cc1)N[C@H]1CCOC1=O
System Name: LasR (Pseudomonas aeruginosa)
inhibition at 5 µM [%]: 20
//
Molecule: O=C(Cc1ccc(-c2ccccc2)cc1)NC1CCOC1=O (stereo not shown)
System Name: LasR (Pseudomonas aeruginosa)
inhibition at 5 µM [%]: 20
